assay: Stability of peptides in simulated intestinal fluid (pH 7.5); format: in vitro ADME; conditions: simulated intestinal fluid, 24 h, 2 μM, pH 7.5
Where a SMILES comes first, the peptide text is derived from it. [ ]: non-standard residue; d: D form. ξ: configuration not given here. ξBip(2'-Et-4'-OMe) = CCc1cc(OC)ccc1-c1ccc(CC(N)C(=O)O)cc1; ξαMePhe(2,6-F2) = CC(N)(Cc1c(F)cccc1F)C(=O)O; ξαMePhe(2-F) = CC(N)(Cc1ccccc1F)C(=O)O; hhPhe = N[C@@H](CCCc1ccccc1)C(=O)O; hArg = N=C(N)NCCCC[C@H](N)C(=O)O; hCit = NC(=O)NCCCC[C@H](N)C(=O)O; Cit = NC(=O)NCCC[C@H](N)C(=O)O; ξαMeM = CSCCC(C)(N)C(=O)O; Nle = CCCC[C@H](N)C(=O)O; Ac5c = NC1(C(=O)O)CCCC1; Aib = CC(C)(N)C(=O)O
% degradation of peptides in 24 h when incubated with simulated intestinal fluid values, listed per item
// return numeric value only (unit: %, not printed)

# example entries with known answers
>  <molecule>
CCCC[C@H](NC(=O)[C@H](CC(C)C)NC(=O)[C@H](CCC(N)=O)NC(=O)[C@@H](NC(=O)[C@H](CCC(=O)O)NC(=O)C(C)(C)NC(=O)[C@@H](NC(=O)C(C)(C)N)C(C)C)[C@@H](C)CC)C(=O)N[C@@H](Cc1c[nH]cn1)C(=O)N[C@@H](CCC(N)=O)C(=O)N[C@@H](CCCCNC(N)=O)C(=O)NC(C)(C)C(=O)NC(C)(C)C(=O)NC(Cc1ccc(-c2ccc(OC)cc2CC)cc1)C(=O)N[C@@H](CCCc1ccccc1)C(N)=O (stereo partly shown) [Seq. ID. 790] (H-[Aib]V[Aib]EIQL[Nle]HQ[hCit][Aib][Aib][ξBip(2'-Et-4'-OMe)][hhPhe]-NH2)

>  <unit-abbrev>
%

>  <meas-value>
00

$$$$
>  <molecule>
CCCC[C@H](NC(=O)C(C)(Cc1ccccc1F)NC(=O)[C@H](CCC(N)=O)NC(=O)[C@@H](NC(=O)[C@H](CCC(=O)O)NC(=O)C(C)(C)NC(=O)[C@@H](NC(=O)C1(N)CCCC1)C(C)C)[C@@H](C)CC)C(=O)N[C@@H](Cc1c[nH]cn1)C(=O)N[C@@H](CCC(N)=O)C(=O)N[C@@H](CCCCNC(N)=O)C(=O)N[C@@H](C)C(=O)N[C@@H](CCCNC(N)=O)C(=O)NC(C)(Cc1ccccc1F)C(N)=O (stereo partly shown) [Seq. ID. 411] (H-[Ac5c]V[Aib]EIQ[ξαMePhe(2-F)][Nle]HQ[hCit]A[Cit][ξαMePhe(2-F)]-NH2)

>  <unit-abbrev>
%

>  <meas-value>
45

$$$$
>  <molecule>
CC[C@H](C)[C@H](NC(=O)[C@H](CCC(=O)O)NC(=O)C(C)(C)NC(=O)[C@@H](NC(=O)C(C)(C)N)C(C)C)C(=O)N[C@@H](CCC(N)=O)C(=O)N[C@@H](CC(C)C)C(=O)NC(C)(CCSC)C(=O)N[C@@H](Cc1c[nH]cn1)C(=O)N[C@@H](CCC(N)=O)C(=O)N[C@@H](CCCCNC(=N)N)C(=O)N[C@@H](C)C(=O)N[C@@H](CCCCNC(=N)N)C(=O)NC(C)(Cc1ccccc1F)C(=O)N[C@@H](CCCc1ccccc1)C(N)=O (stereo partly shown) [Seq. ID. 930] (H-[Aib]V[Aib]EIQL[ξαMeM]HQ[hArg]A[hArg][ξαMePhe(2-F)][hhPhe]-NH2)

>  <unit-abbrev>
%

>  <meas-value>
00

$$$$

Now consider a different molecule.
For reference, reported % degradation of peptides in 24 h when incubated with simulated intestinal fluid for CCCC[C@H](NC(=O)C(C)(Cc1c(F)cccc1F)NC(=O)[C@H](CCC(N)=O)NC(=O)[C@@H](NC(=O)[C@H](CCC(=O)O)NC(=O)C(C)(C)NC(=O)[C@@H](NC(=O)C1(N)CCCC1)C(C)C)[C@@H](C)CC)C(=O)N[C@@H](Cc1c[nH]cn1)C(=O)N[C@@H](CCC(N)=O)C(=O)N[C@@H](CCCCNC(=N)N)C(=O)NC(C)(C)C(=O)NC(C)(Cc1c(F)cccc1F)C(=O)NC(C)(Cc1ccccc1F)C(N)=O (stereo partly shown) [Seq. ID. 220] (H-[Ac5c]V[Aib]EIQ[ξαMePhe(2,6-F2)][Nle]HQ[hArg][Aib][ξαMePhe(2,6-F2)][ξαMePhe(2-F)]-NH2) stands at 46

###

assay: Stability of peptides in human liver microsomes; type: in vitro ADME; settings: human, microsomes, 24 h, 2 μM, pH 7.8
Where a SMILES comes first, the peptide text is derived from it. [ ]: non-standard residue; d: D form. ξ: configuration not given here. ξBip(2'-Et-4'-OMe) = CCc1cc(OC)ccc1-c1ccc(CC(N)C(=O)O)cc1; Arg(NO2) = N=C(NCCC[C@H](N)C(=O)O)N[N+](=O)[O-]; ξαMePhe(2,6-F2) = CC(N)(Cc1c(F)cccc1F)C(=O)O; αMePhe(2-F) = C[C@](N)(Cc1ccccc1F)C(=O)O; ξαMePhe(2-F) = CC(N)(Cc1ccccc1F)C(=O)O; hhPhe = N[C@@H](CCCc1ccccc1)C(=O)O; hArg = N=C(N)NCCCC[C@H](N)C(=O)O; hCit = NC(=O)NCCCC[C@H](N)C(=O)O; Nle = CCCC[C@H](N)C(=O)O; Orn = NCCC[C@H](N)C(=O)O; ξαMeP = CC1(C(=O)O)CCCN1; Ac5c = NC1(C(=O)O)CCCC1; Aib = CC(C)(N)C(=O)O
Parameter % degradation of peptides in 24 h when incubated with liver microsomes: see the listing below.
Give the number; % is assumed, so skip it.

>  <compound>
CCCC[C@H](NC(=O)[C@](C)(Cc1ccccc1F)NC(=O)[C@H](CCC(N)=O)NC(=O)[C@@H](NC(=O)[C@H](CCC(=O)O)NC(=O)C(C)(C)NC(=O)[C@@H](NC(=O)C(C)(C)N)C(C)C)[C@@H](C)CC)C(=O)N[C@@H](Cc1c[nH]cn1)C(=O)N[C@@H](CCC(N)=O)C(=O)N[C@@H](CCCN)C(=O)N[C@@H](C)C(=O)N[C@@H](CCCNC(=N)N[N+](=O)[O-])C(=O)N[C@@](C)(Cc1ccccc1F)C(N)=O [Seq. ID. 329] (H-[Aib]V[Aib]EIQ[αMePhe(2-F)][Nle]HQ[Orn]A[Arg(NO2)][αMePhe(2-F)]-NH2)

>  <unit-abbrev>
%

>  <meas-value>
100

$$$$
>  <compound>
CC[C@H](C)[C@H](NC(=O)[C@H](CCC(=O)O)NC(=O)C(C)(C)NC(=O)[C@@H](NC(=O)C1(NC(=O)[C@@H](N)C(C)C)CC1)C(C)C)C(=O)N[C@@H](CCC(N)=O)C(=O)N[C@@H](CC(C)C)C(=O)NC(C)(CCSC)C(=O)N[C@@H](Cc1c[nH]cn1)C(=O)N[C@@H](CCC(N)=O)C(=O)N[C@@H](CCCCNC(=N)N)C(=O)N[C@@H](C)C(=O)N[C@@H](CCCCNC(=N)N)C(=O)NC(C)(Cc1c[nH]c2ccccc12)C(=O)NC(C)(CCCc1ccccc1)C(N)=O (single isomer, unassigned)

>  <unit-abbrev>
%

>  <meas-value>
35

$$$$

Recorded result, CCCC[C@H](NC(=O)C(C)(Cc1ccccc1F)NC(=O)[C@H](CCC(N)=O)NC(=O)[C@@H](NC(=O)[C@H](CCC(=O)O)NC(=O)C1(NC(=O)[C@@H](NC(=O)C(C)(C)N)C(C)C)CCCC1)[C@@H](C)CC)C(=O)N[C@@H](Cc1c[nH]cn1)C(=O)N[C@@H](CCC(N)=O)C(=O)N[C@@H](CCCCNC(=N)N)C(=O)N1CCCC1(C)C(=O)N[C@@H](CCCCN)C(=O)NC(C)(Cc1ccccc1F)C(N)=O (some centres unmarked) [Seq. ID. 62] (H-[Aib]V[Ac5c]EIQ[ξαMePhe(2-F)][Nle]HQ[hArg][ξαMeP]K[ξαMePhe(2-F)]-NH2) , % degradation of peptides in 24 h when incubated with liver microsomes: 33

Short answer for CCCC[C@H](NC(=O)C(C)(Cc1c(F)cccc1F)NC(=O)[C@H](CCC(N)=O)NC(=O)[C@@H](NC(=O)[C@H](CCC(=O)O)NC(=O)C(C)(C)NC(=O)[C@@H](NC(=O)C(C)(C)N)C(C)C)[C@@H](C)CC)C(=O)N[C@@H](Cc1c[nH]cn1)C(=O)N[C@@H](CCC(N)=O)C(=O)N[C@@H](CCCCNC(N)=O)C(=O)NC(C)(C)C(=O)NC(C)(C)C(=O)NC(C)(Cc1ccccc1F)C(N)=O (some centres unmarked) [Seq. ID. 430] (H-[Aib]V[Aib]EIQ[ξαMePhe(2,6-F2)][Nle]HQ[hCit][Aib][Aib][ξαMePhe(2-F)]-NH2) : % degradation of peptides in 24 h when incubated with liver microsomes was 85

% degradation of peptides in 24 h when incubated with liver microsomes reading for CCCC[C@H](NC(=O)[C@H](CC(C)C)NC(=O)[C@H](CCC(N)=O)NC(=O)[C@@H](NC(=O)[C@H](CCC(=O)O)NC(=O)C(C)(C)NC(=O)[C@@H](NC(=O)C(C)(C)N)C(C)C)[C@@H](C)CC)C(=O)N[C@@H](Cc1c[nH]cn1)C(=O)N[C@@H](CCC(N)=O)C(=O)N[C@@H](CCCCNC(N)=O)C(=O)NC(C)(C)C(=O)NC(C)(C)C(=O)NC(Cc1ccc(-c2ccc(OC)cc2CC)cc1)C(=O)N[C@@H](CCCc1ccccc1)C(N)=O (some centres unmarked) [Seq. ID. 790] (H-[Aib]V[Aib]EIQL[Nle]HQ[hCit][Aib][Aib][ξBip(2'-Et-4'-OMe)][hhPhe]-NH2) : 84

The compound listed as CCCC[C@H](NC(=O)C(C)(Cc1c(F)cccc1F)NC(=O)[C@H](CCC(N)=O)NC(=O)[C@@H](NC(=O)[C@H](CCC(=O)O)NC(=O)C(C)(C)NC(=O)[C@@H](NC(=O)C1(N)CCCC1)C(C)C)[C@@H](C)CC)C(=O)N[C@@H](Cc1c[nH]cn1)C(=O)N[C@@H](CCC(N)=O)C(=O)NC(C)(C)C(=O)NC(C)(C)C(=O)NC(C)(C)C(=O)NC(C)(Cc1ccccc1F)C(N)=O (some centres unmarked) [Seq. ID. 560] (H-[Ac5c]V[Aib]EIQ[ξαMePhe(2,6-F2)][Nle]HQ[Aib][Aib][Aib][ξαMePhe(2-F)]-NH2) has a reported % degradation of peptides in 24 h when incubated with liver microsomes of 80

Please fill in: % degradation of peptides in 24 h when incubated with liver microsomes reported for CCCC[C@H](NC(=O)C(C)(Cc1ccccc1F)NC(=O)[C@H](CCC(N)=O)NC(=O)[C@@H](NC(=O)[C@H](CCC(=O)O)NC(=O)C(C)(C)NC(=O)[C@@H](NC(=O)C(C)(C)N)C(C)C)[C@@H](C)CC)C(=O)N[C@@H](Cc1c[nH]cn1)C(=O)N[C@@H](CCC(N)=O)C(=O)N[C@@H](CCCCNC(=N)N)C(=O)N1CCCC1(C)C(=O)N[C@@H](CCCCN)C(=O)NC(C)(Cc1ccccc1F)C(N)=O (some centres unmarked) [Seq. ID. 56] (H-[Aib]V[Aib]EIQ[ξαMePhe(2-F)][Nle]HQ[hArg][ξαMeP]K[ξαMePhe(2-F)]-NH2) = 32

% degradation of peptides in 24 h when incubated with liver microsomes measured on CCCC[C@H](NC(=O)C(C)(Cc1c(F)cccc1F)NC(=O)[C@H](CCC(N)=O)NC(=O)[C@@H](NC(=O)[C@H](CCC(=O)O)NC(=O)C(C)(C)NC(=O)[C@@H](NC(=O)C1(N)CCCC1)C(C)C)[C@@H](C)CC)C(=O)N[C@@H](Cc1c[nH]cn1)C(=O)N[C@@H](CCC(N)=O)C(=O)N[C@@H](CCCCNC(N)=O)C(=O)NC(C)(C)C(=O)NC(C)(C)C(=O)NC(C)(Cc1c(F)cccc1F)C(N)=O (some centres unmarked) [Seq. ID. 440] (H-[Ac5c]V[Aib]EIQ[ξαMePhe(2,6-F2)][Nle]HQ[hCit][Aib][Aib][ξαMePhe(2,6-F2)]-NH2) = 84
